B1: Osa-1-4 twister ribozyme (parent)
chain: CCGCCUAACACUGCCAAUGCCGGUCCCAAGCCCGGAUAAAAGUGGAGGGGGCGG

Variants of: B1
Test: self-cleavage, relative activity (ratio to wild type); higher = more cleavage; co-transcriptional
# key: entry, value: self-cleavage
Simply state the number, no unit and no words.

Problem: Answer with the recorded self-cleavage of CCGCCUAACACUGCCAAUGCCGGUCCCAAGCCCGGAUAAAAGCAGAGGGGGCGG [G44A U43C] only.
Solution: 0.1

Problem: Answer with the recorded self-cleavage of CCGCCUAACACUGCCAGUGCCGGUCCCAAGCCAGGAUAAAAGUGGAGGGGGCGG [A17G C33A] only.
Solution: 0.18

Problem: Answer with the recorded self-cleavage of CCGCCUAACACUGCCAAUGCCGGUCCCAAGCCCGGAUAGAAGUGGAGGAGGCGG [A39G G49A] only.
Solution: 0.26
